System: Felis catus
Test: Hypotensive activity in cat following i.v. administration of 1 mg/kg expressed as fall in blood pressure
Format: functional
Conditions: route intravenous
Readings of Decrease in blood pressure for the listed compounds
Numbers only; they are read as mmHg.

Example cases with answers are listed next.
CN1CCN(COc2ccc3ccccc3c2)CC1: 18
CC(C)NCC(O)COc1cccc2ccccc12 (stereo not given) [PROPRANOLOL]: 46
c1ccc2cc(OCN3CCCC3)ccc2c1: 12
O=C(O)C(CCOc1cccc2ccccc12)CN1CCN(c2ccccc2)CC1 (stereo not given): 20

Let us move to another entry and its Decrease in blood pressure.
## Input What measured Decrease in blood pressure goes with O=C(O)C(CCOc1cccc2ccccc12)CN1CCOCC1 (stereo not given) ?
## Output 18

Source listed as ChEMBL document CHEMBL1137974.
